Item-by-item account of pKd
target: cynomolgus TCRvβ (BJM0847) (cynomolgus); assay: SPR (Biacore): antibody captured on Protein L chip, BJM0847 as analyte, 1:1 fit
# pKd: negative log10 of molar concentration; output just the value

Worked cases, answers included:
[[record]]
binder = "A-H.58 (scFv) scFv: QVQLVQSGAEVKKPGSSVKVSCKASGHDFRLTYIHWVRQAPGQGLEWMGRVSAGSGNVKYNEKFKGRVTITADTSTSTAYMELSSLRSEDTAVYYCAVSYYSYDVLDYWGQGTTVTVSSGGGGSGGGGSGGGGSGGGGSDIQMTQSPSFLSASVGDRVTITCKASQNVGNRVVWHQQKPGKAPKALIYSSSHRYKGVPSRFSGSGSGTEFTLTISSLQPEDFATYFCQQFKSYPLTFGQGTKLEIK"
recorded_number = 9.80

[[record]]
binder = "A-H.66 (scFv) scFv: QVQLVQSGAEVKKPGSSVKVSCKASGHDFKLTYIHWVRQAPGQGLEWMGRIYAGSGNTKYNEKFKGRVTITADTSTSTAYMELSSLRSEDTAVYYCAVSYYSYDVLDYWGQGTTVTVSSGGGGSGGGGSGGGGSGGGGSDIQMTQSPSFLSASVGDRVTITCKASQNVGDRVVWHQQKPGKAPKALIYSSSHRYKGVPSRFSGSGSGTEFTLTISSLQPEDFATYFCQQFKSYPLTFGQGTKLEIK"
recorded_number = 8.66


With those in mind, consider the next binder.
### Prompt What value of pKd has been recorded for this entry: A-H.57 (scFv) scFv: QVQLVQSGAEVKKPGSSVKVSCKASGHDFRLTYIHWVRQAPGQGLEWMGRVSAGSGNTKYNEKFKGRVTITADTSTSTAYMELSSLRSEDTAVYYCAVSYYSYDVLDYWGQGTTVTVSSGGGGSGGGGSGGGGSGGGGSDIQMTQSPSFLSASVGDRVTITCKASQNVGDRVVWHQQKPGKAPKALIYSSSHRYKGVPSRFSGSGSGTEFTLTISSLQPEDFATYFCQQFKSYPLTFGQGTKLEIK
### Response 9.12
